From: patent EP4768499A1

assay: Metabolic stability test: liver microsomal stability assay; format: in vitro ADME, mouse; details: male, pH 7.4; mouse liver microsomes 0.5 mg protein/mL, compound 1 µM, presence of NADPH; read-out: Mouse Hepatic Microsome CLh,int NADPH(+)
Starred links: 1 amine or outer side, 2 acyl side, 3 side chain; linkers in the order of their positions; H or OH if unused. Positions of bridges follow the written chain, without caps; N, C: chain ends. Non-standard residues stand in square brackets, D forms with d. Residues, ends and D or L forms follow the SMILES beside them. *: point of attachment. NMeF = CN[C@@H](Cc1ccccc1)C(=O)O; NMeI = CC[C@H](C)[C@H](NC)C(=O)O; NMeT = CN[C@H](C(=O)O)[C@@H](C)O; hPhe = N[C@@H](CCc1ccccc1)C(=O)O; NMeβAla = CN(CCC(=O)[*:2])[*:1]; NMeD = CN[C@@H](CC(=O)O)C(=O)O; NMeL = CN[C@@H](CC(C)C)C(=O)O; NMeV = CN[C@H](C(=O)O)C(C)C; d(β3hA) = C[C@@H](N)CC(=O)O; NMeAbu = CC[C@H](NC)C(=O)O; NMeA = CN[C@@H](C)C(=O)O; Piperidide = C1CCN(*)CC1; dNMeA = CN[C@H](C)C(=O)O; Abu = CC[C@H](N)C(=O)O; Sar = CNCC(=O)O; tBu = CC(C)(C)*
Kindly return True if reported microsomal CLint at 1 µM is no lower than 40 µL/min/mg; return False if it is lower.

CC[C@@H]1NC(=O)[C@H]([C@@H](C)O)N(C)C(=O)CCN(C)C(=O)[C@H]([C@@H](C)CC)NC(=O)[C@H](Cc2ccccc2)N(C)C(=O)CN(C)C(=O)C[C@@H](C(=O)N2CCCCC2)NC(=O)[C@H]([C@@H](C)CC)N(C)C(=O)[C@H](COC(C)(C)C)NC(=O)[C@@H]2CCCN2C(=O)[C@H](CCc2ccccc2)NC(=O)[C@H](CC)N(C)C(=O)[C@H](C)NC(=O)[C@H](CC(C)C)N(C)C1=O [pd038] ([Sar][NMeF]I[NMeβAla][NMeT][Abu][NMeL]A[NMeAbu][hPhe]PS(tBu)[NMeI]D-Piperidide; lactam N-14)
False

Please indicate if the recorded microsomal CLint at 1 µM for CC[C@H](C)[C@@H]1NC(=O)[C@H](CC(C)C)N(C)C(=O)[C@H](C)N(C)C(=O)[C@H](C)N(C)C(=O)C[C@@H](C)NC(=O)[C@H](CC(C)C)NC(=O)[C@H](CC(C)C)N(C)C(=O)CN(C)C(=O)[C@H]([C@@H](C)O)NC(=O)[C@H]([C@@H](C)CC)N(C)C(=O)[C@H](CC(C)C)N(C)C(=O)[C@H](C(C)C)NC(=O)[C@H](Cc2ccccc2)N(C)C1=O [pd134] (cyclo(I[NMeF]V[NMeL][NMeI]T[Sar][NMeL]L[d(β3hA)][NMeA][NMeA][NMeL])) meets or exceeds 40 µL/min/mg. False

Is microsomal CLint at 1 µM for CC[C@@H]1NC(=O)[C@H](CC(C)C)N(C)C(=O)[C@H]([C@@H](C)CC)NC(=O)CN(C)C(=O)C[C@@H](C)NC(=O)[C@H](C(C)C)N(C)C(=O)[C@H](COC(C)(C)C)NC(=O)[C@H](CC(C)C)N(C)C(=O)[C@H](Cc2ccccc2)N(C)C(=O)[C@H](C)NC(=O)[C@H](C(C)C)NC(=O)CN(C)C(=O)[C@H]([C@@H](C)O)NC(=O)[C@H](CC(C)C)N(C)C1=O [pd011] (cyclo(A[NMeF][NMeL]S(tBu)[NMeV][d(β3hA)][Sar]I[NMeL][Abu][NMeL]T[Sar]V)) at or above 40 µL/min/mg? False

Does the reported microsomal CLint at 1 µM for CC[C@H](C)[C@H]1C(=O)N[C@@H](CC(C)C)C(=O)N(C)[C@@H](CC(C)C)C(=O)N2CCC[C@H]2C(=O)N(C)[C@@H](C(C)C)C(=O)N[C@H](C(=O)N2CCCCC2)CC(=O)N(C)[C@@H](C)C(=O)N(C)[C@@H](CC(C)C)C(=O)N[C@@H](COC(C)(C)C)C(=O)N(C)[C@@H](Cc2ccccc2)C(=O)N(C)[C@@H](CC)C(=O)N(C)[C@@H](Cc2ccccc2)C(=O)N[C@@H]([C@@H](C)O)C(=O)N1C [pd119] ([NMeA][NMeL]S(tBu)[NMeF][NMeAbu][NMeF]T[NMeI]L[NMeL]P[NMeV]D-Piperidide; lactam N-13) fall at or above the 40 µL/min/mg mark? True

Does CC[C@H](C)[C@@H]1NC(=O)[C@H](C)N(C)C(=O)[C@H]([C@@H](C)O)NC(=O)[C@H](Cc2ccccc2)N(C)C(=O)[C@H](COC(C)(C)C)NC(=O)[C@H](CC(C)C)N(C)C(=O)[C@H](C(C)C)NC(=O)CN(C)C(=O)[C@H](Cc2ccccc2)N(C)C(=O)[C@H]([C@@H](C)CC)NC(=O)[C@H](CC(C)C)N(C)C(=O)CCN(C)C(=O)C[C@@H](C(=O)N2CCCCC2)NC(=O)[C@H](CC(C)C)N(C)C1=O [pd034] ([NMeβAla][NMeL]I[NMeF][Sar]V[NMeL]S(tBu)[NMeF]T[NMeA]I[NMeL]D-Piperidide; lactam N-14) have a reported microsomal CLint at 1 µM of at least 40 µL/min/mg? True

API: above_or_equal(metric=microsomal CLint at 1 µM, cutoff=40 µL/min/mg) for item CC[C@H](C)[C@@H]1NC(=O)[C@H](Cc2ccccc2)N(C)C(=O)[C@H](C(C)C)NC(=O)[C@@H](C)N(C)C(=O)C[C@@H](C)NC(=O)[C@H](C(C)C)N(C)C(=O)[C@H](Cc2ccccc2)N(C)C(=O)[C@H](COC(C)(C)C)NC(=O)[C@H](CC(C)C)N(C)C(=O)[C@H](C)N(C)C(=O)[C@@H]2CCCN2C(=O)[C@H]([C@@H](C)O)NC(=O)[C@H](CC(C)C)N(C)C1=O [pd130] (cyclo(I[NMeL]TP[NMeA][NMeL]S(tBu)[NMeF][NMeV][d(β3hA)][dNMeA]V[NMeF])) False

Could you verify whether the entry CC[C@@H]1NC(=O)[C@H](C(C)C)N(C)C(=O)[C@H](C(C)C)NC(=O)[C@H](C)N(C)C(=O)CCN(C)C(=O)[C@H](CCc2ccccc2)NC(=O)[C@H](CC(C)C)N(C)C(=O)[C@H]([C@@H](C)CC)NC(=O)CN(C)C(=O)C[C@@H](C(=O)N2CCCCC2)N(C)C(=O)[C@H](CC(C)C)NC(=O)[C@H](CC(C)C)N(C)C(=O)[C@H]([C@@H](C)O)NC(=O)[C@H](Cc2ccccc2)N(C)C1=O [pd088] ([Sar]I[NMeL][hPhe][NMeβAla][NMeA]V[NMeV][Abu][NMeF]T[NMeL]L[NMeD]-Piperidide; lactam N-14) shows microsomal CLint at 1 µM of no less than 40 µL/min/mg? False
